Biological target: 5-HT1B (h) (Homo sapiens)
Construct: expressed in transfected cells; host or cells: Chem-1 RBL cells
Sequence (P28222 whole entry): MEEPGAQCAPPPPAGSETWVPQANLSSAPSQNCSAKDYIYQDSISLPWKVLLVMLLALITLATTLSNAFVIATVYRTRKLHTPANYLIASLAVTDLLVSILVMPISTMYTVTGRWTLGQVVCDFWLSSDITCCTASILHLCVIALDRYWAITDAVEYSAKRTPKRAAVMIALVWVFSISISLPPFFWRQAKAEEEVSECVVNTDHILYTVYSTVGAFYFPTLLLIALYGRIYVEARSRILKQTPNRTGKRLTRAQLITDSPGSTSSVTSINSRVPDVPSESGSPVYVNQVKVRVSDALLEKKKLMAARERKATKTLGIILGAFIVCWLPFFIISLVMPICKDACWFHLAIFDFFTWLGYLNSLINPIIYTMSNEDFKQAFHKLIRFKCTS
Assay: Radioligand binding 5-HT1B (h) (antagonist radioligand), [^3H]GR125743, Chem-1 RBL cells
Some compounds, each annotated with its measured Mean Percent Inhibition of Control Specific Binding.
The figure you give is taken to be in %; do not add the unit.

Compound | Observed
COCc1cc(CCN)c(O)cc1CC(C)C | 12.6
COCc1cc(CCN)c(OC)cc1CC(C)C | 57.3
COCc1cc(CCN)c(OC)cc1Br | 74.2

Next:
May I ask what Mean Percent Inhibition of Control Specific Binding has been recorded for COCCc1cc(CCN)c(OC)cc1Br [Compound 2CB-5ME, reference compound] ?
91.4

---

Biological target: M2 (h) (Homo sapiens, UniProt P08172)
Construct: expressed in transfected cells; host or cells: CHO cells
Sequence (P08172 1-466): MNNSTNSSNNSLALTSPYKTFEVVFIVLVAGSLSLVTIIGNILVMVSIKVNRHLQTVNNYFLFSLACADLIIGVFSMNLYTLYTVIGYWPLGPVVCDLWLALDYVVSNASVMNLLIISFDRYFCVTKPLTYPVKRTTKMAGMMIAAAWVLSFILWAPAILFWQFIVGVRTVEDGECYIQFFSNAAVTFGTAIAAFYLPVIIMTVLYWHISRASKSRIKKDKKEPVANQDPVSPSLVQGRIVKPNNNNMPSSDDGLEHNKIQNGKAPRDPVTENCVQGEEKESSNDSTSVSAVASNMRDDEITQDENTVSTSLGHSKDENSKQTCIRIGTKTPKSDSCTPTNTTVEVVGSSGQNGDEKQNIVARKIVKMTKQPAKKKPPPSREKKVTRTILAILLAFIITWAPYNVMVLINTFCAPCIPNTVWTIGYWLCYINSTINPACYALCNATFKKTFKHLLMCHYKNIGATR
Test: Radioligand binding M2 (h) (antagonist radioligand), [^3H]AF-DX 384, CHO cells
Some molecules, each annotated with its measured Mean Percent Inhibition of Control Specific Binding.
The figure you give is taken to be in %; do not add the unit.

Molecule | Assay system | U | Observed
COCCc1cc(CCN)c(OC)cc1Br [Compound 2CB-5ME, reference compound] | M2 (h) (Homo sapiens, UniProt P08172) | % | 21.5
COCc1cc(CCN)c(OC)cc1CC(C)C | M2 (h) (Homo sapiens, UniProt P08172) | % | 16.0
COCc1cc(CCN)c(O)cc1CC(C)C | M2 (h) (Homo sapiens, UniProt P08172) | % | 14.9

Next:
May I ask what Mean Percent Inhibition of Control Specific Binding has been recorded for `COCc1cc(CCN)c(OC)cc1Br` ?
10.0

---

Test system: BZD (central)
Experiment: Radioligand binding BZD (central) (agonist radioligand), [^3H]flunitrazepam, rat cerebral cortex
Endpoint label: Mean Percent Inhibition of Control Specific Binding (%)
The figure you give is taken to be in %; do not add the unit.

Compound | Assay system | Observed
COCCc1cc(CCN)c(OC)cc1Br [Compound 2CB-5ME, reference compound] | BZD (central) | −3.0
COCc1cc(CCN)c(OC)cc1Br | BZD (central) | −1.8
COCc1cc(CCN)c(O)cc1CC(C)C | BZD (central) | 8.3

Next:
May I ask what Mean Percent Inhibition of Control Specific Binding has been recorded for `COCc1cc(CCN)c(OC)cc1CC(C)C` ?
6.6

---

Some compounds, each annotated with its measured Mean Percent Inhibition of Control Specific Binding.
Target: ETA (h) (Homo sapiens, UniProt P25101)
Construct: expressed in transfected cells; host or cells: CHO cells
Sequence (P25101 21-427): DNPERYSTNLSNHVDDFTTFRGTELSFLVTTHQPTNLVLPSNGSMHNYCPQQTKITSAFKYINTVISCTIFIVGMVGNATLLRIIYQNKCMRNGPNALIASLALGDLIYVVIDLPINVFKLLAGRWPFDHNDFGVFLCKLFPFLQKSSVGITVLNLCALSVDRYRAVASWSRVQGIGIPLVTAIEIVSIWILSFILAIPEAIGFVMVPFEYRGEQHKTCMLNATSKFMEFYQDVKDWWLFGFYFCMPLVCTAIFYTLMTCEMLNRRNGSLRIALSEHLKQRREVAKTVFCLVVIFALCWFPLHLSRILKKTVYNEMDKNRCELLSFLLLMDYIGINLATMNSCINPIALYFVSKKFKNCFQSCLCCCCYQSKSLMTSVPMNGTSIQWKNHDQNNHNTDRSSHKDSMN
Experiment: Radioligand binding ETA (h) (agonist radioligand), [^125I]endothelin-1, CHO cells
The figure you give is taken to be in %; do not add the unit.

Example entries and their recorded answers appear below.
Compound | Observed
COCc1cc(CCN)c(OC)cc1CC(C)C | −1.5
COCCc1cc(CCN)c(OC)cc1Br [Compound 2CB-5ME, reference compound] | −3.5
COCc1cc(CCN)c(O)cc1CC(C)C | −9.0

Mean Percent Inhibition of Control Specific Binding of `COCc1cc(CCN)c(OC)cc1Br` on ETA (h) (Homo sapiens, UniProt P25101)?
−6.5

---

Biological target: N neuronal α4β2 (h) (Homo sapiens, UniProt P17787+P43681)
Construct: expressed in transfected cells; host or cells: SH-SY5Y cells
Sequence (P43681 29-627 limits assumed): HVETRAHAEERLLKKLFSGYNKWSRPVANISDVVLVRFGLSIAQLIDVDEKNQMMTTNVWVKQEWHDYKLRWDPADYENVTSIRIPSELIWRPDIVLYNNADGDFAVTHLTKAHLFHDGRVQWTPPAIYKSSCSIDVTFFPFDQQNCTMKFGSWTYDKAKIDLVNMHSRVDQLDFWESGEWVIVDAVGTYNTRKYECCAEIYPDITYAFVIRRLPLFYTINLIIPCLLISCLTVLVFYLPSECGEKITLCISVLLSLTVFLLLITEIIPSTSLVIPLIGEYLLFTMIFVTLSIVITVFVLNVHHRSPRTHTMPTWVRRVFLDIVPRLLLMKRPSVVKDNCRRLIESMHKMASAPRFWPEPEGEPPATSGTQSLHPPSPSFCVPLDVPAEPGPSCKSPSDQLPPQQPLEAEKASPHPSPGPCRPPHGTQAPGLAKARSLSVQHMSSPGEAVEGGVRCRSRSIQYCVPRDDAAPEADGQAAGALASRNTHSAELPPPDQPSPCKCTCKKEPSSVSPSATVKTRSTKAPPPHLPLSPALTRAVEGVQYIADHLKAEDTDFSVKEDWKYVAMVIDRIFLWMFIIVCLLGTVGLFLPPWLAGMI
Sequence (P17787 26-502): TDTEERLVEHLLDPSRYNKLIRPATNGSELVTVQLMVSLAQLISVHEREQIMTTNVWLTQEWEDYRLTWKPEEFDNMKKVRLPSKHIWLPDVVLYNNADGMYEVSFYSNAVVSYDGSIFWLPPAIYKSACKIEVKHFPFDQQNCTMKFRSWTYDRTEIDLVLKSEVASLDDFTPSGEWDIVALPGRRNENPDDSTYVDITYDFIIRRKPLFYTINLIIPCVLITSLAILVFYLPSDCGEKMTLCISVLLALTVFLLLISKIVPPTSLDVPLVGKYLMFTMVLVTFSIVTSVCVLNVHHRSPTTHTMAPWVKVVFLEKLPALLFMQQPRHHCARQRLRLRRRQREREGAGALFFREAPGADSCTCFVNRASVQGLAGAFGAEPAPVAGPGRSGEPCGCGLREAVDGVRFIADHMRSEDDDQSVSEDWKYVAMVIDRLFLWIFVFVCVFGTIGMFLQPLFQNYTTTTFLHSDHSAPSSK
Test: Radioligand binding N neuronal α4β2 (h) (agonist radioligand), [^3H]cytisine, SH-SY5Y cells
Conditions: N neuronal alpha4beta2 (h) (agonist radioligand)
Endpoint label: Mean Percent Inhibition of Control Specific Binding (%)
The figure you give is taken to be in %; do not add the unit.

Molecule | Assay system | U | Observed
COCc1cc(CCN)c(O)cc1CC(C)C | N neuronal α4β2 (h) (Homo sapiens, UniProt P17787+P43681) | % | −10.0
COCc1cc(CCN)c(OC)cc1CC(C)C | N neuronal α4β2 (h) (Homo sapiens, UniProt P17787+P43681) | % | −2.6
COCc1cc(CCN)c(OC)cc1Br | N neuronal α4β2 (h) (Homo sapiens, UniProt P17787+P43681) | % | −0.1

Next:
May I ask what Mean Percent Inhibition of Control Specific Binding has been recorded for COCCc1cc(CCN)c(OC)cc1Br [Compound 2CB-5ME, reference compound] ?
7.4

---

Some molecules, each annotated with its measured Mean Percent Inhibition of Control Specific Binding.
Target: AR (h) (Homo sapiens, UniProt P10275, T878A)
Construct: human endog; endogenous in cells; host or cells: LNCaP cells
Sequence (P10275 whole entry T878A): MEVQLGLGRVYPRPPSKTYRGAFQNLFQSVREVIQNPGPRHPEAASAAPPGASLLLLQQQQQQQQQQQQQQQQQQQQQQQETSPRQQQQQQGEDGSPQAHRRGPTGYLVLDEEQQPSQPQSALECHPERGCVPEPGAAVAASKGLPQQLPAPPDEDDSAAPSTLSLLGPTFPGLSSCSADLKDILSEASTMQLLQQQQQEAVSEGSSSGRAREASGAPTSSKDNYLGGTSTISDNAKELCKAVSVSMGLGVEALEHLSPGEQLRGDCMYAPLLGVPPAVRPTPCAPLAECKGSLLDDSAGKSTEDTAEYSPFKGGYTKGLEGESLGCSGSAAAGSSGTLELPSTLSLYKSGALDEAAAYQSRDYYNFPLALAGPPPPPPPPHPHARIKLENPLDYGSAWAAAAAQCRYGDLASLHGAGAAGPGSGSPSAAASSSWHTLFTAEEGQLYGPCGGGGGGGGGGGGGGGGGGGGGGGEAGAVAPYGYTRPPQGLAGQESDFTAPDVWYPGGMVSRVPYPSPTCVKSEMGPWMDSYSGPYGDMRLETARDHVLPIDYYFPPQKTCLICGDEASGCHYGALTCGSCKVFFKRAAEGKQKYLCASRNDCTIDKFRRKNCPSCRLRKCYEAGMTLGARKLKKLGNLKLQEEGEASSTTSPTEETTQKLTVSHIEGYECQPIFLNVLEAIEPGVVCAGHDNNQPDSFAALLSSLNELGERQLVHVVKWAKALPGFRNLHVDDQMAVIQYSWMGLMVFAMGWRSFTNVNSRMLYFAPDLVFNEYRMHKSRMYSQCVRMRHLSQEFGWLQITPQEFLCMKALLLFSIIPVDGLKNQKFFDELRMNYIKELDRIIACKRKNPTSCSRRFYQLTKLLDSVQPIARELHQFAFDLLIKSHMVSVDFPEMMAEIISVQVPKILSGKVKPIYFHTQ
Assay: Radioligand binding AR (h) (agonist radioligand), [^3H]methyltrienolone, LNCaP cells
In your response, put the unit directly after the numeric value.

Molecule | Assay system | Observed
COCCc1cc(CCN)c(OC)cc1Br [Compound 2CB-5ME, reference compound] | AR (h) (Homo sapiens, UniProt P10275, T878A) | −7.7%

May I ask what Mean Percent Inhibition of Control Specific Binding has been recorded for `COCc1cc(CCN)c(O)cc1CC(C)C` ?
−9.9%

Now give it for `COCc1cc(CCN)c(OC)cc1Br` too.
−9.2%

Now give it for `COCc1cc(CCN)c(OC)cc1CC(C)C` too.
3.0%

---

Some compounds, each annotated with its measured Mean Percent Inhibition of Control Specific Binding.
Biological target: beta1 (h) (Homo sapiens, UniProt P08588)
Construct: expressed in transfected cells; host or cells: HEK-293 cells
Sequence (P08588 whole entry): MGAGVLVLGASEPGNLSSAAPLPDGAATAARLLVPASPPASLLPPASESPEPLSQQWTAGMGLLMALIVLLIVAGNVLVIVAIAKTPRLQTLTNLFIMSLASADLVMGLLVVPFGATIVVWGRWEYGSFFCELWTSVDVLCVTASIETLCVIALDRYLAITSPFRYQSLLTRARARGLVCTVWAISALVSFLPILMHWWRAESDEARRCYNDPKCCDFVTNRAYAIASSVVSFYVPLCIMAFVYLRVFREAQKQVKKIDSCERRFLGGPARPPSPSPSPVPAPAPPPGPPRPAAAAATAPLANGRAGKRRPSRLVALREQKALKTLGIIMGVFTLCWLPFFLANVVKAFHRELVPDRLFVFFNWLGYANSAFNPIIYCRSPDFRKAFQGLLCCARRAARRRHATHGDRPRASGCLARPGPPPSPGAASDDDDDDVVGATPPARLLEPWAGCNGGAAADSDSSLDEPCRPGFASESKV
Assay: Radioligand binding beta1 (h) (agonist radioligand), [^3H](−)CGP 12177, HEK-293 cells
The figure you give is taken to be in %; do not add the unit.

Example entries and their recorded answers appear below.
Compound | Observed
COCc1cc(CCN)c(O)cc1CC(C)C [2CiBu-2OH-5MM] | 84.5
COCc1cc(CCN)c(OC)cc1CC(C)C [Compound 2CiBu-5MM] | 36.0
COCc1cc(CCN)c(OC)cc1Br [Compound 2CB-5MM] | 19

Next:
May I ask what Mean Percent Inhibition of Control Specific Binding has been recorded for COCCc1cc(CCN)c(OC)cc1Br [Compound 2CB-5ME, reference compound] ?
26.2

---

Some compounds, each annotated with its measured Mean Percent Inhibition of Control Specific Binding.
Target: Lck kinase (h) (Homo sapiens, UniProt P06239)
Construct: host or cells: insect cells
Sequence (P06239 whole entry): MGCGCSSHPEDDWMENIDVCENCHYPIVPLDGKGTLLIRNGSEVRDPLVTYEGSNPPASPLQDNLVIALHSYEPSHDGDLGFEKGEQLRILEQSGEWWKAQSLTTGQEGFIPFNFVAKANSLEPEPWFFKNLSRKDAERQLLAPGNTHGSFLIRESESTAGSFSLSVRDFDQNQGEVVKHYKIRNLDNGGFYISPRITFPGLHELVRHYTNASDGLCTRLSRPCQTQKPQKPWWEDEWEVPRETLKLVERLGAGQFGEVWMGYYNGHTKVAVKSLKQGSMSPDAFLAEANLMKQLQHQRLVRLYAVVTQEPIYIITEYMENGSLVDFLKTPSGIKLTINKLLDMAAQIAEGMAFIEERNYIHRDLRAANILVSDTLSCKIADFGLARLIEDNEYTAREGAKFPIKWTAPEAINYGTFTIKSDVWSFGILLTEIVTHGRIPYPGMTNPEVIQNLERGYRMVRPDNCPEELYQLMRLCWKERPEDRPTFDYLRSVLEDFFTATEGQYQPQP
Test: Enzyme assay Lck kinase (h), LANCE
Assay type: biochemical
In your response, put the unit directly after the numeric value.

Example entries and their recorded answers appear below.
Compound | Assay system | Observed
COCc1cc(CCN)c(OC)cc1CC(C)C | Lck kinase (h) (Homo sapiens, UniProt P06239) | −6.6%
COCc1cc(CCN)c(O)cc1CC(C)C | Lck kinase (h) (Homo sapiens, UniProt P06239) | 12.8%
COCc1cc(CCN)c(OC)cc1Br | Lck kinase (h) (Homo sapiens, UniProt P06239) | 5.9%

Next:
May I ask what Mean Percent Inhibition of Control Specific Binding has been recorded for COCCc1cc(CCN)c(OC)cc1Br [Compound 2CB-5ME, reference compound] ?
23.3%

---

Some molecules, each annotated with its measured Mean Percent Inhibition of Control Specific Binding.
Target: A2A (h) (Homo sapiens, UniProt P29274)
Construct: expressed in transfected cells; host or cells: HEK-293 cells
Sequence (P29274 whole entry): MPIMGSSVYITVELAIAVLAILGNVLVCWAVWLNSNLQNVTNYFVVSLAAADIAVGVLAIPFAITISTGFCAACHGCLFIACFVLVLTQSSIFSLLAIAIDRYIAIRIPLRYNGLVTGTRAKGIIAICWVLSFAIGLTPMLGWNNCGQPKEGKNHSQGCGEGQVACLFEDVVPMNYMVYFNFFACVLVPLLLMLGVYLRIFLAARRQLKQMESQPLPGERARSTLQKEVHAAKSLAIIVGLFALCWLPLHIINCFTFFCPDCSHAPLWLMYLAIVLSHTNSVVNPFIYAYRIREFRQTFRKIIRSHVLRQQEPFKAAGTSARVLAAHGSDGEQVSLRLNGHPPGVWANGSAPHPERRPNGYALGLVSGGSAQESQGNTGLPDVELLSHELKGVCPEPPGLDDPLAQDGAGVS
Experiment: Radioligand binding A2A (h) (agonist radioligand), [^3H]CGS 21680, HEK-293 cells
The figure you give is taken to be in %; do not add the unit.

Example entries and their recorded answers appear below.
Molecule | U | Observed
COCc1cc(CCN)c(OC)cc1Br | % | 12.2
COCc1cc(CCN)c(OC)cc1CC(C)C | % | 1.1
COCCc1cc(CCN)c(OC)cc1Br [Compound 2CB-5ME, reference compound] | % | −21.3

Next:
May I ask what Mean Percent Inhibition of Control Specific Binding has been recorded for `COCc1cc(CCN)c(O)cc1CC(C)C` ?
11.0
